These data points were gathered from ChEMBL document CHEMBL4219060.

Could you please report measured Cmax for the items listed next?
TEST_SUMMARY: Cmax in Sprague-Dawley rat at 10 mg/kg, po via gavage
Format: ADME, organism-based
Set-up: dose 10 mg/kg, route oral
MEASUREMENT_CONTEXT: in vivo
Write the number in ng/mL without appending the unit.

For the molecule shown here, O=C(NOCCO)c1cc2ccoc2c(F)c1Nc1ccc(I)cc1F , give the reported Cmax.
2080

For the molecule shown here, O=C(NOC[C@H](O)CO)c1cc2ccoc2c(F)c1Nc1ccc(I)cc1F , give the reported Cmax.
695

For the molecule shown here, O=C(NOC[C@H](O)CO)c1cc2c(c(F)c1Nc1ccc(I)cc1F)OCC2 , give the reported Cmax.
342

For the molecule shown here, O=C(NOC(CO)CO)c1cc2ccoc2c(F)c1Nc1ccc(I)cc1F , give the reported Cmax.
13600
